# System: Mus musculus
# protocolNotes: Analgesic activity of i.v. administered compound in fasted male mice at 10 min. interval was determined using phenylquinone writhing assay
# Type: functional
# measurementSetup: iv
Residues, ends and D or L forms follow the SMILES beside them. *: point of attachment. Butanoyl(3,3-Me2) = CC(C)(C)CC(=O)*; X2 = O=C(CC1CCC2CCCC21)*; Boc = CC(C)(C)OC(=O)*

compound | experimentalTarget | unitTag | ED50
CC[C@H](C)[C@H](NC(=O)[C@H](Cc1ccc(O)cc1)NC(=O)[C@@H]1CCCN1C(=O)[C@H](CCCCN)NC(=O)OC(C)(C)C)C(=O)N[C@@H](CC(C)C)C(=O)O (Boc-KPYIL-OH) | Mus musculus | mg/kg | 6.5
CC[C@H](C)[C@H](NC(=O)[C@H](Cc1ccc(O)cc1)NC(=O)[C@@H]1CCCN1C(=O)[C@H](CCCCN)NC(=O)CC1CCC2CCCC21)C(=O)N[C@@H](CC(C)C)C(=O)O (stereo partly drawn) (X2-KPYIL-OH) | Mus musculus | mg/kg | 15
CC[C@H](C)[C@H](NC(=O)[C@H](Cc1ccc(O)cc1)NC(=O)[C@@H]1CCCN1C(=O)[C@H](CCCCN)NC(=O)CC(C)(C)C)C(=O)N[C@@H](CC(C)C)C(=O)O ({Butanoyl(3,3-Me2)}-KPYIL-OH) | Mus musculus | mg/kg | 4.9

* * *

ED50 listing for selected molecules.
# Test system: Mus musculus
# protocolNotes: Analgesic activity in fasted male mice in phenylquinone writhing assay 5 min after i.c.v. administration.
# Format: functional
Non-standard residues stand in square brackets, D forms with d. Residues, ends and D or L forms follow the SMILES beside them. *: point of attachment. X1 = O=C(C(F)(F)C(F)(F)C(F)(F)C(F)(F)C(F)(F)C(F)(F)C(F)(F)F)*; Adamantane1carbonyl = O=C(C12CC3CC(CC(C3)C1)C2)*; Butanoyl(3,3-Me2) = CC(C)(C)CC(=O)*; Stearoyl = CCCCCCCCCCCCCCCCCC(=O)*; X3 = O=C1NC2CSC(CCCCC(=O)*)C2N1; Orn = NCCC[C@H](N)C(=O)O; X4 = O=C(CC1CC2CCC1C2)*; Boc = CC(C)(C)OC(=O)*; Bz = O=C(c1ccccc1)*

molecule | unitTag | ED50
CC[C@H](C)[C@H](NC(=O)[C@H](Cc1ccc(O)cc1)NC(=O)[C@@H]1CCCN1C(=O)[C@H](CCCCN)NC(=O)c1ccccc1)C(=O)N[C@@H](CC(C)C)C(=O)O (Bz-KPYIL-OH) | ug mouse-1 | 0.0088
CCCCCCCCCCCCCCCCCC(=O)N[C@@H](CCCCN)C(=O)N1CCC[C@H]1C(=O)N[C@@H](Cc1ccc(O)cc1)C(=O)N[C@H](C(=O)N[C@@H](CC(C)C)C(=O)O)[C@@H](C)CC (Stearoyl-KPYIL-OH) | ug mouse-1 | 38
CC[C@H](C)[C@H](NC(=O)[C@H](Cc1ccc(O)cc1)NC(=O)[C@@H]1CCCN1C(=O)[C@H](CCCN)NC(=O)OC(C)(C)C)C(=O)N[C@@H](CC(C)C)C(=O)O (Boc-[Orn]PYIL-OH) | ug mouse-1 | 0.00084
CC[C@H](C)[C@H](NC(=O)[C@H](Cc1ccc(O)cc1)NC(=O)[C@@H]1CCCN1C(=O)[C@H](CCCCN)NC(=O)CCCCC1SCC2NC(=O)NC21)C(=O)N[C@@H](CC(C)C)C(=O)O (stereo partly drawn) (X3-KPYIL-OH) | ug mouse-1 | 0.86
CC[C@H](C)[C@H](NC(=O)[C@H](Cc1ccc(O)cc1)NC(=O)[C@@H]1CCCN1C(=O)[C@H](CCCCN)NC(=O)CC(C)(C)C)C(=O)N[C@@H](CC(C)C)C(=O)O ({Butanoyl(3,3-Me2)}-KPYIL-OH) | ug mouse-1 | 0.095
CC[C@H](C)[C@H](NC(=O)[C@H](Cc1ccc(O)cc1)NC(=O)[C@@H]1CCCN1C(=O)[C@H](CCCN)NC(=O)C12CC3CC(CC(C3)C1)C2)C(=O)N[C@@H](CC(C)C)C(=O)O (Adamantane1carbonyl-[Orn]PYIL-OH) | ug mouse-1 | 0.13
CC[C@H](C)[C@H](NC(=O)[C@H](Cc1ccc(O)cc1)NC(=O)[C@@H]1CCCN1C(=O)[C@H](CCCCN)NC(=O)C(F)(F)C(F)(F)C(F)(F)C(F)(F)C(F)(F)C(F)(F)C(F)(F)F)C(=O)N[C@@H](CC(C)C)C(=O)O (X1-KPYIL-OH) | ug mouse-1 | 2.2
CC[C@H](C)[C@H](NC(=O)[C@H](Cc1ccc(O)cc1)NC(=O)[C@@H]1CCCN1C(=O)[C@H](CCCCN)NC(=O)CC1CC2CCC1C2)C(=O)N[C@@H](CC(C)C)C(=O)O (stereo partly drawn) (X4-KPYIL-OH) | ug mouse-1 | 0.018

* * *

What follows is a collection of pKi values obtained with Neurotensin receptor type 1 (Rattus norvegicus, UniProt P20789).
Sequence (P20789 whole entry): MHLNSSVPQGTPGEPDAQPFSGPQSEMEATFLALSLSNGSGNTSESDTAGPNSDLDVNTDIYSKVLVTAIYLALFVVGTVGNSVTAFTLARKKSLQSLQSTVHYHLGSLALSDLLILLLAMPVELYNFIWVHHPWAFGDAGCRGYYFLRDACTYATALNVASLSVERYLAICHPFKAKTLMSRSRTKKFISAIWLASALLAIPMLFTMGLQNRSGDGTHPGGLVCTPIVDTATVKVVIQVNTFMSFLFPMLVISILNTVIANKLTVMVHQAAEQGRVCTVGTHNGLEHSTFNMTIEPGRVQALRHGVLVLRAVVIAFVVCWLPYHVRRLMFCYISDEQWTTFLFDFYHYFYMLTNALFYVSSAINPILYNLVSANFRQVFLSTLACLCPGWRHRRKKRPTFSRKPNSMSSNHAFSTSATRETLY
pKi: −log10 of the molar value. Residues, ends and D or L forms follow the SMILES beside them. *: point of attachment. X1 = O=C(C(F)(F)C(F)(F)C(F)(F)C(F)(F)C(F)(F)C(F)(F)C(F)(F)F)*; Benzoyl(4-Ph) = O=C(c1ccc(-c2ccccc2)cc1)*; Stearoyl = CCCCCCCCCCCCCCCCCC(=O)*; Nicotinoyl = O=C(c1cccnc1)*; Piv = CC(C)(C)C(=O)*

compound | censoringOperator | pKi
CC[C@H](C)[C@H](NC(=O)[C@H](Cc1ccc(O)cc1)NC(=O)[C@@H]1CCCN1C(=O)[C@H](CCCCN)NC(=O)c1cccnc1)C(=O)N[C@@H](CC(C)C)C(=O)O (Nicotinoyl-KPYIL-OH) | = | 6.38
CC[C@H](C)[C@H](NC(=O)[C@H](Cc1ccc(O)cc1)NC(=O)[C@@H]1CCCN1C(=O)[C@H](CCCCN)NC(=O)c1ccc(-c2ccccc2)cc1)C(=O)N[C@@H](CC(C)C)C(=O)O ({Benzoyl(4-Ph)}-KPYIL-OH) | = | 6.06
CC[C@H](C)[C@H](NC(=O)[C@H](Cc1ccc(O)cc1)NC(=O)[C@@H]1CCCN1C(=O)[C@H](CCCCN)NC(=O)C(C)(C)C)C(=O)N[C@@H](CC(C)C)C(=O)O (Piv-KPYIL-OH) | = | 6.72
CCCCCCCCCCCCCCCCCC(=O)N[C@@H](CCCCN)C(=O)N1CCC[C@H]1C(=O)N[C@@H](Cc1ccc(O)cc1)C(=O)N[C@H](C(=O)N[C@@H](CC(C)C)C(=O)O)[C@@H](C)CC (Stearoyl-KPYIL-OH) | < | 5.00
CC[C@H](C)[C@H](NC(=O)[C@H](Cc1ccc(O)cc1)NC(=O)[C@@H]1CCCN1C(=O)[C@H](CCCCN)NC(=O)C(F)(F)C(F)(F)C(F)(F)C(F)(F)C(F)(F)C(F)(F)C(F)(F)F)C(=O)N[C@@H](CC(C)C)C(=O)O (X1-KPYIL-OH) | = | 5.68
